target: PACAP-R3 (Homo sapiens); assay: Cyclic AMP SPA on CHO cells expressing PACAP R3; type: cell-based; design: expressed in transfected cells; host or cells: CHO cells (Geneticin selection); settings: cAMP SPA, CHO cells transfected with PACAP-R3; concentration at which 50% of maximum PACAP27 activity is achieved; NA = no detectable activities; read-out: R3 EC50
Sequence (P41587 24-438): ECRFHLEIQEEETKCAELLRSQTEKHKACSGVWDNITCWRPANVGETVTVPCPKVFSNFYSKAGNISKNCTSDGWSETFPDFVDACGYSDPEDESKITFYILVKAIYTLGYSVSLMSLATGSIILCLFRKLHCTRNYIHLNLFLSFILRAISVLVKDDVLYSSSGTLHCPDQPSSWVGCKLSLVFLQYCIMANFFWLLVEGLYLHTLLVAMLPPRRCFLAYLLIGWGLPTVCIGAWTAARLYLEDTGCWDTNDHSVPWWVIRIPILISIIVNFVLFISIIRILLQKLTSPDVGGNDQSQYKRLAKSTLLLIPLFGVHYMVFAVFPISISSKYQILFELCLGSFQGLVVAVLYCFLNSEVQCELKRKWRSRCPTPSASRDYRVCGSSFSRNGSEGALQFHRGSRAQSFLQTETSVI
No end group written: not given here.
parameter: log10(EC50) (log10 of the value in nM)

substance: HSDAVFTDNYTRLRKQMARKKYLNSIKNKR [Peptide R3P110]
log10(EC50): -0.30

substance: HSDAVFTDNYTRLRKQVAVKKYLQSILKKR [Peptide R3P88]
log10(EC50): -1.10

substance: HSDGIFTDSYSRYRKQMAVKKYLAAVKKYLAAVRHG-NH2 [Peptide R3P17]
log10(EC50): 0.60

substance: HSDAVFTDNYTRLRKQMAAKKYLNSIPNRI [rR3P179]
log10(EC50): 0.18

substance: HSDAVFTDNYTRLRKQMAAKKYLNSIKNGR [Peptide R3P139]
log10(EC50): -0.40

substance: HSDAVFTDNYTRLRKQMASKKYLNSIQNRI [rR3P188]
log10(EC50): 0.34

substance: Ac-HSDAVFTENYTKLRKQLAAKKYLNDLKKGGT [Peptide R3P2]
log10(EC50): 0.48

substance: HSDAVFTDNYTRLRKQMAAKKYLNSIKNKI [Peptide R3P160]
log10(EC50): -0.70

substance: HSDAVFTDNYTRLRKQMAWKKYLNSIKNKR [Peptide R3P114]
log10(EC50): 0.30

substance: HSDGIFTDSYKRYRKQMAVKKYLAAVL-NH2 [PAC11]
log10(EC50): 2.15

substance: HSDAVFTDNYTRLRKQMAVKKYLNSIKKK [Peptide R3P58]
log10(EC50): -0.49

substance: HSDAVFTDNYTRLRKQMAVKKYLNSIKKGGT [Peptide R3P9]
log10(EC50): 0.30

substance: HSDAVFTDNYTRLRKQMAVKKYLNSIKKKR [Peptide R3P57]
log10(EC50): -0.64

substance: H-HSDAVFTDNYTRLRKQLAVKKYLNDIKKGGT-OH [Peptide R3P21]
log10(EC50): -0.52

substance: HSDGIFTDSYSRYRKQMAVKKYLAAKL-NH2 [PAC26]
log10(EC50): -0.52

substance: Ac-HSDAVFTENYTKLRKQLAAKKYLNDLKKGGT-NH2 [Peptide R3P1]
log10(EC50): 0.30

substance: ESDGIFTDSYSRYRKQMAVKKYLAAVL-NH2 [PAC1]
log10(EC50): 1.00

substance: H-HSDAVFTDNYTRLRKQLAAKKYLNDIKKNQ [Peptide R3P35]
log10(EC50): 0.41

substance: HSDAVFTDNYTRLRKQVAAKKYLQSILNK [Peptide R3P94]
log10(EC50): -1.05

substance: HSDAVFTDNYTRLRKQVAVKKYLQSILKKRY [Peptide R3P87]
log10(EC50): -0.70

substance: HSDAVFTDNYTRLRKQMAAKKYLNSILK [Peptide R3P50]
log10(EC50): -0.89

substance: HSDGIFTDKYSRYRKQMAVKKYLAAVL-NH2 [PAC9]
log10(EC50): -0.15
